# Tested on: T-47D human breast cancer cells
# protocol_notes: cells
# Type: cell-based
# applied_conditions: MTT assay, T-47D; read-out: Cytotoxicity, IC50, T-47D
pIC50: −log10 of the molar value.

molecule: CO[C@@H]1[C@@H](O)[C@H](O[C@@H]2[C@@H](O)[C@H](O[C@H]3[C@H](O)[C@@H](O)[C@H](O[C@H]4[C@H](O[C@H]5CC[C@]6(C)C7=CCC89C(=O)O[C@@](C)(CCC=C(C)C)[C@H]8C(=O)C[C@@]9(C)[C@@H]7CC[C@H]6C5(C)C)OC[C@@H](O)[C@@H]4O)O[C@@H]3C)OC[C@H]2O)O[C@H](CO)[C@H]1O (stereo partly drawn) [A4 (8), cladoloside A4]
tested_target: T-47D human breast cancer cells
pIC50: < 4.70
--
molecule: C=C(C)CC[C@@H](OC(C)=O)[C@]1(C)OC(=O)C23CC=C4[C@@H](CC[C@H]5C(C)(C)[C@@H](O[C@@H]6OC[C@@H](O)[C@H](O)[C@H]6O[C@@H]6O[C@H](C)[C@@H](O[C@@H]7OC[C@@H](O)[C@H](O[C@@H]8O[C@H](CO)[C@@H](O)[C@H](OC)[C@H]8O)[C@H]7O)[C@H](O)[C@H]6O)CC[C@]45C)[C@]2(C)C[C@H](OC(C)=O)[C@@H]31 (stereo partly drawn) [A2 (6), cladoloside A2]
tested_target: T-47D human breast cancer cells
pIC50: < 4.70
--
molecule: COC1C(O)C(CO)OC(OC2C(O)COC(OC3C(C)OC(OC4C(OC5CCC6(C)C7=CCC89C(=O)OC(C)(CC=CC(C)(C)O)C8C(=O)CC9(C)C7CCC6C5(C)C)OCC(O)C4O)C(O)C3O)C2O)C1O (stereo not drawn) [A5 (9), cladoloside A5]
tested_target: T-47D human breast cancer cells;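 also: cell viability read as absorbance of formazan dye at 570 nm, each experiment run in triplicate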
pIC50: < 4.70
